// IC50 lookup, one value per entry
# assayed-target: Nav1.7 (or SCN9A) channel; HEK cells stably transfected with hSCN9A (Homo sapiens, UniProt Q15858)
# Construct: expressed in transfected cells
# Sequence (Q15858 whole entry): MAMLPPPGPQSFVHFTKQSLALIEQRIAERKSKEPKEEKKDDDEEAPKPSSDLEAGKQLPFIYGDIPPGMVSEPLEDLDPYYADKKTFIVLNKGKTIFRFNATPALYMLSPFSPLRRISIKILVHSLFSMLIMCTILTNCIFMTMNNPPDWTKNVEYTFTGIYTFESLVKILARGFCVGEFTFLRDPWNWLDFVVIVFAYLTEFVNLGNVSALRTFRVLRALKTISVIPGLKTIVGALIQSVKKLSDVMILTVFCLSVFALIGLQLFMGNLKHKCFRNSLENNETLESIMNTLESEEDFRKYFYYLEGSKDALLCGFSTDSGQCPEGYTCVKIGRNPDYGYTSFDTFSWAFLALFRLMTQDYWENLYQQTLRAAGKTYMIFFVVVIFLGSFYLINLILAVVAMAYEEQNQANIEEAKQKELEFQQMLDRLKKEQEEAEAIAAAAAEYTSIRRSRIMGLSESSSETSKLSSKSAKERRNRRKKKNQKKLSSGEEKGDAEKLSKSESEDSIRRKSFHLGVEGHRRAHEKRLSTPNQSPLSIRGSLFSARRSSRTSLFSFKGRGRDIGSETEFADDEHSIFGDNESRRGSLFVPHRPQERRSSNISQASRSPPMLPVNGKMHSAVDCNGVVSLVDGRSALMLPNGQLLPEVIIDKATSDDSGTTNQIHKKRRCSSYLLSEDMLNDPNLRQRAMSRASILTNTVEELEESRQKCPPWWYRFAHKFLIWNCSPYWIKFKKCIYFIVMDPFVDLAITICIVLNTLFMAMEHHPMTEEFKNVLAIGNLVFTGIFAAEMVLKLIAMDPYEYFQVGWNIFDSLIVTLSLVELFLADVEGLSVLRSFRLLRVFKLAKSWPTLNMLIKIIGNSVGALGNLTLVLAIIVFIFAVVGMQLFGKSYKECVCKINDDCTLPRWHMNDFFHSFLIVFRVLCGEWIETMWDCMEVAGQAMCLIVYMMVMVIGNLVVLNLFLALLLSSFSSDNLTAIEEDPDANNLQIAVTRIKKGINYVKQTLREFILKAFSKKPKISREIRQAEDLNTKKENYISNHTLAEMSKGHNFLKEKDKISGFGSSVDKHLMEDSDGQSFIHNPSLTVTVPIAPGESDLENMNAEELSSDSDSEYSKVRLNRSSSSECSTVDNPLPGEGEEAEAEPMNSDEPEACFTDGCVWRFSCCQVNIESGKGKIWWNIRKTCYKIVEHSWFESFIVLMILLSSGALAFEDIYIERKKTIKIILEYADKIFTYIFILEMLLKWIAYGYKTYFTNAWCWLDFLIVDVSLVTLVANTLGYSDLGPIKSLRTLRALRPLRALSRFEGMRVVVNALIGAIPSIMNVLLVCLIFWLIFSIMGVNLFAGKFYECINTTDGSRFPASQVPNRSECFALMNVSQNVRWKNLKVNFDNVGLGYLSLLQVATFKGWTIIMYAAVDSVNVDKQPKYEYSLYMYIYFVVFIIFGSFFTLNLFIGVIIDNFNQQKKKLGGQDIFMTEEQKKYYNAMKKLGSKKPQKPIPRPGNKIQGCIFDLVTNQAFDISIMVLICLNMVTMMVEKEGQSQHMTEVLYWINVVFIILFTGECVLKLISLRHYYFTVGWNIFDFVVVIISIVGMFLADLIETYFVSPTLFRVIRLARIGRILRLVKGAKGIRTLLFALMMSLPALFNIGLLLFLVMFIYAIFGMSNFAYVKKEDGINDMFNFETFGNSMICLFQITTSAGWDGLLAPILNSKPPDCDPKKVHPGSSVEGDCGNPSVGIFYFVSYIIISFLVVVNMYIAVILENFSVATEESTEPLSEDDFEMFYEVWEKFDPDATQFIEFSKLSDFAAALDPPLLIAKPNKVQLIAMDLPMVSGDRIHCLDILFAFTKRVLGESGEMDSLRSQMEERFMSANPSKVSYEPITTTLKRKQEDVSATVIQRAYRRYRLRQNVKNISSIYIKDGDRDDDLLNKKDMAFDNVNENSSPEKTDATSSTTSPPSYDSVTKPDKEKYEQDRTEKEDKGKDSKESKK
# assay-notes: Nav1.7 block, PatchXpress 7000 automated whole-cell voltage clamp, estimated IC50 (EIC50)
# Format: cell-based
# condition-parameters: estimated IC50; hSCN9A HEK cells, PatchXpress platform; Examples 283-814

Cn1ncnc1-c1cc(Cl)ccc1Oc1ccc(S(=O)(=O)Nc2ncc(F)s2)cc1F [Example 349] ... >1000 nM
N#Cc1cc(S(=O)(=O)Nc2cscn2)ccc1Oc1ccc(F)cc1-c1cnn(CC(F)(F)F)c1 [Example 415] ... >1000 nM

# next compound below
Value lookup for IC50; key = N#Cc1cc(S(=O)(=O)Nc2nccs2)ccc1Oc1ccc(-c2cc(C3CC3)n[nH]2)c(Cl)c1 [Example 373] >1000 nM
